Ref: patent US20100292083A1

Molecular target: T1, human IL6R (human, UniProt P08887 20-358, limits assumed)
T1 construct: Antigen of the Biacore experiments
T1 sequence (looked up): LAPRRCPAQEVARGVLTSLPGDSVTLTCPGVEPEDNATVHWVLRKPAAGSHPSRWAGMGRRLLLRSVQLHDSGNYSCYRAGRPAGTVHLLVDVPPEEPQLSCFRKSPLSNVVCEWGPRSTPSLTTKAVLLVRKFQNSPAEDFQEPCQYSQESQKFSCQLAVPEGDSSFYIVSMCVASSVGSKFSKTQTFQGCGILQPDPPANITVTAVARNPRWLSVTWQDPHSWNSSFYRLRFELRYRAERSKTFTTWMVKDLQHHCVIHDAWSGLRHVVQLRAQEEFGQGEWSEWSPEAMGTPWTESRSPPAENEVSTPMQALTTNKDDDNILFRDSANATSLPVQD
Experiment: SPR (Biacore), periplasmic extract
Assignment: determine reported log10 koff for the given binders.
Field: value | Transform: log10 | Quantity: koff | Unit: s⁻¹

For every item in the list below, what is its measured log10 koff?
1. 32C9PMP1_E6 (VHH, name in Kabat numbering, Humanized 32C9 variant) VHH: EVQLVESGGGLVQAGGSLRLSCAASGFTFSDYDIGWVRQAPGKGREGVSGISSSDGNTYYADSVKGRFTISSDNAKNTVYLQMNSLKAEDTAVYYCAAEPPDSSWYLDGSPEFFKYWGQGTLVTVSS
2. 32C9PMP2_B5 (VHH, name in Kabat numbering, Humanized 32C9 variant) VHH: EVQLVESGGGLVQAGGSLRLSCAASGFTFSDYDIGWVRQAPGKGREGVSGISSSDGNTYYADSVKGRFTISSDNAKNTVYLQMNSLRPEDTAVYYCAAEPPDSSWYLDGSPEFFKYWGQGTLVTVSS
3. 32C9PMP1_H4 (VHH, name in Kabat numbering, Humanized 32C9 variant) VHH: EVQLVESGGGLVQPGGSLRLSCAASGFTFSDYDIGWFRQAPGKGREGVSGISSSDGNTYYADSVKGRFTISSDNAKNTLYLQMNSLKAEDTAVYYCAAEPPDSSWYLDGSPEFFKYWGQGTQVTVSS
4. 32C9PMP2_A2 (VHH, name in Kabat numbering, Humanized 32C9 variant) VHH: EVQLVESGGGLVQPGGSLRLSCAASGFTFSDYDIGWFRQAPGKGREGVSGISSSDGNTYYADSVKGRFTISRDNAKNTLYLQMNSLKAEDTAVYYCAAEPPDSSWYLDGSPEFFKYWGQGTQVTVSS
5. 32C9PMP2_E1 (VHH, name in Kabat numbering, Humanized 32C9 variant) VHH: EVQLVESGGGLVQPGGSLRLSCAASGFTFDDYDIGWFRQAPGKELEGVSGISSSDGNTYYADSVKGRFTISSDNAKNTVYLQMNSLRPEDTAVYYCAAEPPDSSWYLDGSPEFFKYWGQGTQVTVSS
6. 32C9PMP1_D4 (VHH, name in Kabat numbering, Humanized 32C9 variant) VHH: EVQLVESGGGLVQAGGSLRLSCAASGFTFSDYDIGWFRQAPGKGREGVSGISSSDGNTYYADSVKGRFTISSDNAKNTLYLQMNSLKAEDTAVYYCAAEPPDSSWYLDGSPEFFKYWGQGTQVTVSS
7. 32C9PMP2_B11 (VHH, name in Kabat numbering, Humanized 32C9 variant) VHH: EVQLVESGGGLVQAGGSLRLSCAASGFTFDDYDIGWVRQAPGKEREWVSGISSSDGNTYYADSVKGRFTISSDNAKNTLYLQMNSLRPEDTAVYYCAAEPPDSSWYLDGSPEFFKYWGQGTQVTVSS

Result:
[-3.01, -3.10, -3.73, -3.72, -2.78, -3.71, -2.11]

Request: log10 koff for 32C9PMP2_A12 (VHH, name in Kabat numbering, Humanized 32C9 variant) VHH: EVQLVESGGGLVQAGGSLRLSCAASGFTFDDYDIGWFRQAPGKELEGVSGISSSDGNTYYADSVKGRFTISSDNAKNTVYLQMNSLKAEDTAVYYCAAEPPDSSWYLDGSPEFFKYWGQGTQVTVSS ?
Result: -2.54
